The compounds below each have a reported Ki tested on Amine oxidase [flavin-containing] A (Rattus norvegicus, UniProt P21396); the values come from various publications.
Biological target: Amine oxidase [flavin-containing] A (Rattus norvegicus, UniProt P21396)
Sequence (P21396 whole entry): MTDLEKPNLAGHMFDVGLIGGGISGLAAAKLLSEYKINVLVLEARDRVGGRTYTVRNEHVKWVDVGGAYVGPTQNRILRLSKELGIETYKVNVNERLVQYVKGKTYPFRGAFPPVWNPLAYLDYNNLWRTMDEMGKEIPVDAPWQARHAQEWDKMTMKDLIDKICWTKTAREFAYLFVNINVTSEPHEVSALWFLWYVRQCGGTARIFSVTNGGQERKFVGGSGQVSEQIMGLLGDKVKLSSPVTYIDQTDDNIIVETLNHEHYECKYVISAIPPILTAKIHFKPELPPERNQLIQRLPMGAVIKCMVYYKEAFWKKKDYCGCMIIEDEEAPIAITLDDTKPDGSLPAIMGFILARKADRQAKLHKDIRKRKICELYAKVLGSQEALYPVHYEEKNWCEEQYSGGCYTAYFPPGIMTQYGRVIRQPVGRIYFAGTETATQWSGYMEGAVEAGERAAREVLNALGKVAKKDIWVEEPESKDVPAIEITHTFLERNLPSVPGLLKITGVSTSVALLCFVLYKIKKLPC
Quantity kind: Ki (µM)

Reference set, count: 4
compound=Cn1c(N/N=C(/C=C/c2cccc(Cl)c2)c2ccccc2)nc2ccccc2c1=O tested_on="Amine oxidase [flavin-containing] A (Rattus norvegicus, UniProt P21396)" unit_symbol=µM observed=5.1
compound="Oc1ccccc1C1CC(c2c3ccccc3cc3ccccc23)=NN1 (centres undefined)" tested_on="Amine oxidase [flavin-containing] A (Rattus norvegicus, UniProt P21396)" unit_symbol=µM observed=0.0776
compound=Cn1c(N/N=C(/C=C/c2ccc(Cl)cc2)c2ccccc2)nc2ccccc2c1=O tested_on="Amine oxidase [flavin-containing] A (Rattus norvegicus, UniProt P21396)" unit_symbol=µM observed=1.05
compound="Cc1ccc(S(=O)(=O)N2N=C(c3ccccc3O)CC2c2ccc(O)cc2)cc1 (centres undefined)" tested_on="Amine oxidase [flavin-containing] A (Rattus norvegicus, UniProt P21396)" unit_symbol=µM observed=0.6

[a] COc1ccc(/C=C/C(=N/Nc2nc3ccccc3c(=O)n2C)c2ccccc2)cc1OC
[b] CCCN1CCC(c2ccc(N3CCOCC3)cc2)CC1
# compare Ki for a vs b ; return the one with the smaller value In your reply, give the label of the chosen option.
b
(b: 1.2 µM, a: 90.7 µM)

[A] CNC(=S)N1NC2=C(CCCC2)C1c1ccco1 (centres undefined)
[B] Cc1ccccc1NC(=S)N1N=C(c2ccc(O)cc2)CC1c1ccco1 (centres undefined)
[C] COc1ccc(C(/C=C/c2ccco2)=N\Nc2nc3ccccc3c(=O)n2C)cc1
Could you please sort these 3 entries by Ki from high to low? Form field (ranking): labels in requested order.
C, A, B
